Species on record: Rattus norvegicus
Experiment: Open TG-GATES - Regimen: Single
Assay type: toxicity, organism-based, Sprague-Dawley
Parameters: regimen Single, gender Male, age 6 weeks
Details: in vivo, po, 10 mg/kg, 24 h, tissue Plasma, route gavage, dose level Low
Exercise: state measured RALB for each of the compounds provided.
Write the answer as a number in g/dL, unit excluded.

// lookup RALB for CC1=C(/C=C/C(C)=C/C=C/C(C)=C/CO)C(C)(C)CCC1 [RETINOL]
3.1

Recorded RALB for CC(C)OC(=O)C(C)(C)Oc1ccc(C(=O)c2ccc(Cl)cc2)cc1 [FENOFIBRATE] , please?
2.6

What value of RALB has been reported for the following compound? "CN(C)CCN(Cc1cccs1)c1ccccn1"
2.9

Param item = CN(C)CCCN1c2ccccc2CCc2ccccc21 [IMIPRAMINE] ; retrieve measured RALB.
2.5

Fill in the blank: the reported RALB of CN(C)CCCN1c2ccccc2CCc2ccc(Cl)cc21 [CLOMIPRAMINE] is ____.
2.6

====

Kindly supply the reported Ret values for the records listed here.
Species: Rattus norvegicus
Assay: Open TG-GATES - Regimen: Single
Assay type: toxicity, organism-based, Sprague-Dawley
Set-up: regimen Single, gender Male, age 6 weeks
Details: in vivo, po, 300 mg/kg, 9 h, tissue Blood, route gavage, dose level Middle
Express your answer in %, writing the number without its unit.

Quick check: Ret of CCOC(=O)CCC(=O)O[C@H]1[C@H](O[C@@H]2[C@@H](C)[C@H](O[C@H]3C[C@@](C)(OC)[C@@H](O)[C@H](C)O3)[C@@H](C)C(=O)O[C@H](CC)[C@@](C)(O)[C@H](O)[C@@H](C)C(=O)[C@H](C)C[C@@]2(C)O)O[C@H](C)C[C@@H]1N(C)C [ERYTHROMYCIN ETHYLSUCCINATE] ?
8

Record request: Ret value, item COc1ccc2[nH]c([S+]([O-])Cc3ncc(C)c(OC)c3C)nc2c1 (centres undefined) [OMEPRAZOLE]
6.7

Need Ret, item NC(N)=Nc1nc(CSCCC(N)=NS(N)(=O)=O)cs1 [FAMOTIDINE]
7.2

// lookup Ret for COC1=CC(=O)C[C@@H](C)[C@]12Oc1c(Cl)c(OC)cc(OC)c1C2=O [GRISEOFULVIN]
8.2

====

Can you tell me TG for the items I'm about to list?
Organism: Rattus norvegicus
Experiment: Open TG-GATES - Regimen: Daily Repeat
Format: toxicity, organism-based, Sprague-Dawley
Set-up: regimen Daily Repeat, gender Male, age 6 weeks
Conditions: in vivo, po, 0 mg/kg, 72 h, tissue Plasma, route gavage, dose level Control, time 3 day
State the value, then name its unit.

Reported TG, molecule "CN(C)CCN(Cc1cccs1)c1ccccn1" : ____
86.8 mg/dL

TG lookup needed for CN1C(=O)CN=C(c2ccccc2)c2cc(Cl)ccc21 [DIAZEPAM] , thanks.
115.4 mg/dL

Query (molecule): O=C(CCCN1CCC(O)(c2ccc(Cl)cc2)CC1)c1ccc(F)cc1 [HALOPERIDOL] ; field requested: TG
96.6 mg/dL

TG for NC(N)=Nc1nc(CSCCC(N)=NS(N)(=O)=O)cs1 [FAMOTIDINE] ?
78.4 mg/dL

Name the reported TG value associated with the molecule CCOc1ccc(NC(=O)CC(C)O)cc1 (configuration not stated) [BUCETIN]
104.6 mg/dL

Which TG value belongs to CCOC(=O)CCC(=O)O[C@H]1[C@H](O[C@@H]2[C@@H](C)[C@H](O[C@H]3C[C@@](C)(OC)[C@@H](O)[C@H](C)O3)[C@@H](C)C(=O)O[C@H](CC)[C@@](C)(O)[C@H](O)[C@@H](C)C(=O)[C@H](C)C[C@@]2(C)O)O[C@H](C)C[C@@H]1N(C)C [ERYTHROMYCIN ETHYLSUCCINATE] ?
91 mg/dL

Give its TG value. Item: NNC(=O)c1ccncc1 [ISONIAZID]
110.2 mg/dL
